# MEASURED TARGET: Bromodomain-containing protein 9 (Homo sapiens)
# Sequence (Q9H8M2 whole entry, the tested form may be a part): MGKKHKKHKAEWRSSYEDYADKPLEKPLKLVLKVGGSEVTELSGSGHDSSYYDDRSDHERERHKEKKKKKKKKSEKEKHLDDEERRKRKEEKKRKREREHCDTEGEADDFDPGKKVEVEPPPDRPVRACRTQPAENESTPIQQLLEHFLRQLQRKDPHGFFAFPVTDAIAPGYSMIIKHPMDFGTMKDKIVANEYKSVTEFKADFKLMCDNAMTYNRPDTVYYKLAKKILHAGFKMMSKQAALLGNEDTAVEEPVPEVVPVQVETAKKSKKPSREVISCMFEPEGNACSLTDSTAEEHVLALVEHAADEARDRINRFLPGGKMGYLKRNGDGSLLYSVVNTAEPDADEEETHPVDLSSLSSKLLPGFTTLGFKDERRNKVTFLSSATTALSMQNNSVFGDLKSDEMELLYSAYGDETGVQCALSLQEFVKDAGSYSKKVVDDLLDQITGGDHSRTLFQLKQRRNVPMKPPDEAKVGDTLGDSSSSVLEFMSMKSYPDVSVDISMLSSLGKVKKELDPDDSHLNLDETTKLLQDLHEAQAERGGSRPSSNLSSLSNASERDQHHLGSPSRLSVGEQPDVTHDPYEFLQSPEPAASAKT
# PROTOCOL DETAILS: Binding affinity to human partial length BRD9 (R130 to V259 residues) by bromoKdELECT Discover assay
# STUDY CONDITIONS: read-out: Kd
OBSERVATION TYPE: Kd (nM)
Please give a number only; it is taken to be in nM.

Can you look up Kd on Bromodomain-containing protein 9 (Homo sapiens) for CCc1c(C(=O)NCc2c(O)ccc3cccc(O)c23)[nH]c(C)c1C(C)=O ? 2900

###

# MEASURED TARGET: Bromodomain-containing protein 4 (Homo sapiens)
# PROTOCOL DETAILS: Binding affinity to BRD4 BD1 (unknown origin) at 37 degree C by ITC analysis
OBSERVATION TYPE: Kd (nM)
Your answer should be a plain number; it is taken to be in nM.

Bench note: what Kd did CCN(CC)S(=O)(=O)c1ccc(O)c(NC(=O)c2[nH]c(C)c3c2CCCCC3=O)c1 show? 170
